# target system: adenosine kinase (Homo sapiens)
# method summary: inhibition of adenosine kinase activity in vitro
# Type: biochemical
# assay setup: Table 1, adenosine kinase
pIC50: −log10 of the molar value.
# binarize pIC50: threshold 7 inclusive, high side Met, low side Not met

compound="CC(C)(C)OC(=O)CN[C@H]1C[C@@H](n2cc(I)c3c(Cl)ncnc32)[C@H](O)[C@@H]1O [drawing 14: R4=t-buOCOCH2 NH; R5=Cl; R6=I]" discrete_label=Met
compound="N[C@H]1C[C@@H](n2cc(C#Cc3ccccc3)c3c(C#Cc4ccccc4)ncnc32)[C@H](O)[C@@H]1O [drawing 14: R4=NH2; R5=C≡C--Ph; R6=C≡C--Ph]" discrete_label=Met
compound=Nc1ncnc2c1c(I)cn2[C@@H]1C[C@H](Nc2ccc(Cl)nn2)[C@@H](O)[C@H]1O discrete_label=Met
compound=CC(C)(C)OC(=O)[C@H](CC(N)=O)N[C@H]1C[C@@H](n2cc(I)c3c(Cl)ncnc32)[C@H](O)[C@@H]1O discrete_label="Not met"
compound=N[C@@H]1C=C[C@H](n2cc(I)c3c(Cl)ncnc32)C1 discrete_label="Not met"
compound=CC(C)(C)OC(=O)[C@H](CC(N)=O)N([C@H]1C[C@@H](n2cc(I)c3c(Cl)ncnc32)[C@H](O)[C@@H]1O)S(=O)(=O)c1ccc([N+](=O)[O-])cc1[N+](=O)[O-] discrete_label="Not met"
compound=Nc1ncnc2c1c(I)cn2[C@@H]1C[C@H](Nc2ncccn2)[C@@H](O)[C@H]1O discrete_label=Met
compound=N[C@@H]1CC[C@H](n2cc(I)c3c(Cl)ncnc32)C1 discrete_label="Not met"
compound="N[C@H]1C[C@@H](n2cc(-c3ccccc3)c3c(Nc4ccccc4)ncnc32)[C@H](O)[C@@H]1O [drawing 14: R4=NH2; R5=NHPh; R6=Ph]" discrete_label=Met
compound=O[C@@H]1[C@H](O)[C@@H](Nc2ccc(Br)cc2)C[C@H]1n1cc(I)c2c(Cl)ncnc21 discrete_label=Met
compound=NC(=O)C[C@H](N[C@H]1C[C@@H](n2cc(I)c3c(Cl)ncnc32)[C@H](O)[C@@H]1O)C(=O)O discrete_label=Met

====

# target system: adenosine kinase (Homo sapiens, UniProt P55263)
# Sequence (P55263 whole entry, species assumed): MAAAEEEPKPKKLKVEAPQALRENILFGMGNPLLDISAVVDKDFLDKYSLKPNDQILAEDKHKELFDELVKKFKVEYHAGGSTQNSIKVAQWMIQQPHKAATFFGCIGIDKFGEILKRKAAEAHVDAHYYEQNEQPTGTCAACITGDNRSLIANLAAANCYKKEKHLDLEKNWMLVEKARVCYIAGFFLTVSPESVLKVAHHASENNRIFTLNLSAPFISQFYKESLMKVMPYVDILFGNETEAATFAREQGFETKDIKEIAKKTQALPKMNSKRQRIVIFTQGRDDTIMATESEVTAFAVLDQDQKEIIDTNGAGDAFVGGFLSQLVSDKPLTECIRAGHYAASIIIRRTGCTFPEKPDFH
# method summary: inhibition of adenosine kinase activity in vitro
# Type: biochemical
# assay setup: Table 2, adenosine kinase
# Description: The adenosine kinase to be inhibited can be located in vitro, in situ or in vivo. […] In vitro adenosine kinase activity can be measured using any of the standard procedures well known in the art. […] Inhibition is measured as the ability to inhibit phosphorylation of endogenous or externally applied ^14 C-adenosine by these cells. […]
pIC50: −log10 of the molar value.
value type: pIC50

compound="CC(=O)O[C@@H]1[C@H](OC(C)=O)[C@@H](OC(C)=O)C[C@H]1n1cc(Cl)c2c(Cl)ncnc21 [drawing 24: R5=Cl; R6=Cl]" target_system="adenosine kinase (Homo sapiens, UniProt P55263)" value_type=pIC50 relation_sign=< observed=5.00
compound="NCC(=O)N[C@H]1C[C@@H](n2cc(I)c3c(Cl)ncnc32)[C@H](O)[C@@H]1O [drawing 27: R=NH2 CH2 CO]" target_system="adenosine kinase (Homo sapiens, UniProt P55263)" value_type=pIC50 relation_sign== observed=7.49
compound="COC(=O)N[C@H]1C[C@@H](n2cc(I)c3c(Cl)ncnc32)[C@H](O)[C@@H]1O [drawing 27: R=CH3 OCO]" target_system="adenosine kinase (Homo sapiens, UniProt P55263)" value_type=pIC50 relation_sign== observed=6.52
compound="CC(=O)O[C@@H]1[C@H](OC(C)=O)[C@@H](OC(C)=O)C[C@H]1n1cc(I)c2c(Cl)ncnc21 [drawing 24: R5=Cl; R6=I]" target_system="adenosine kinase (Homo sapiens, UniProt P55263)" value_type=pIC50 relation_sign=< observed=4.00
compound=O=C(Cc1ccccn1)N[C@H]1C[C@@H](n2cc(I)c3c(Cl)ncnc32)[C@H](O)[C@@H]1O target_system="adenosine kinase (Homo sapiens, UniProt P55263)" value_type=pIC50 relation_sign== observed=6.76
compound="CN(C)CC(=O)N[C@H]1C[C@@H](n2cc(I)c3c(Cl)ncnc32)[C@H](O)[C@@H]1O [drawing 27: R=(CH3)2 NCH2 CO]" target_system="adenosine kinase (Homo sapiens, UniProt P55263)" value_type=pIC50 relation_sign== observed=6.32
compound=O=C(Cc1cccnc1)N[C@H]1C[C@@H](n2cc(I)c3c(Cl)ncnc32)[C@H](O)[C@@H]1O target_system="adenosine kinase (Homo sapiens, UniProt P55263)" value_type=pIC50 relation_sign== observed=6.60
